tested on: 454973-116-R2-J3-PDC spheroids, viability, % test/control; assay: Anticancer human tumor 454973-116-R2-J3-PDC patient-derived pancreatic carcinoma cell line growth inhibition [GQUAD]; conditions: second compound 0.316 µM; first compound 1 µM; hits give low values; spheroids with HUVEC and MSC;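 note: spheroids exposed to compounds for seven days; 100% = DMSO vehicle control viability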
Value type: viability, T/C (%)
Write the value in % as a bare number.

Some solved cases for reference:
{"columns": ["Compound", "Experimental value"],
 "data": [
  ["COc1ncnc(C2CC2)c1-c1ncc2cnn(Cc3ccc(-c4nc(C(F)(F)F)cn4C(C)C)cc3)c2n1 + Cc1cnc(CNC(=O)c2c(=O)c3ccc(N4CCCN(C)CC4)nc3n3c2sc2ccccc23)cn1", 69.2],
  ["O=c1[nH]cc(F)c(=O)[nH]1 + Cc1[nH]c2ccc(F)cc2c1-c1nc2c3cccnc3c3ncccc3c2[nH]1", 78.9],
  ["CC(=O)O[C@H]1C(=O)[C@@]2(C)[C@H]([C@H](OC(=O)c3ccccc3)[C@]3(O)C[C@H](OC(=O)[C@H](O)[C@@H](NC(=O)c4ccccc4)c4ccccc4)C(C)=C1C3(C)C)[C@]1(OC(C)=O)CO[C@@H]1C[C@@H]2O + Cc1cnc(CNC(=O)c2c(=O)c3ccc(N4CCCN(C)CC4)nc3n3c2sc2ccccc23)cn1", 15.7]
]}

Turning to the following compound.
Task: Report viability, T/C from 454973-116-R2-J3-PDC spheroids, viability, % test/control testing of COc1ncnc(C2CC2)c1-c1ncc2cnn(Cc3ccc(-c4nc(C(F)(F)F)cn4C(C)C)cc3)c2n1 + Cc1[nH]c2ccc(F)cc2c1-c1nc2c3cccnc3c3ncccc3c2[nH]1
Result: 120
